Molecular target: T1, hBCMA (human BCMA) (Homo sapiens, UniProt Q02223)
T1 sequence (Q02223 1-184): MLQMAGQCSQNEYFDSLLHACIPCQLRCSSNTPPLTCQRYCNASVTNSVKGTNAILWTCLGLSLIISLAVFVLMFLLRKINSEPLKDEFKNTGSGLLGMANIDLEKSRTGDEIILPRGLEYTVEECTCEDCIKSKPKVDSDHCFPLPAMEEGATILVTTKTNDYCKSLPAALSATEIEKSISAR
Assay: Kinetics and affinity of hBCMA/human IgG interactions by SPR (Bio-Rad Proteon XPR36)
Assay type: binding
Settings: human BCMA, 37° C.
# ka Human per entry
I only need the number, in M⁻¹ s⁻¹, no unit after it.

A02_Rd4_6 nM_C10: anti-BCMA antibody (antibody, V domains shown) VH: EVQLLESGGGLVQPGGSLRLSCAASGFTFSSYAMNWVRQAPGKGLEWVSAISDSGGSCWYADSVKGRFTISRDNSKNTLYLQMNSLRAEDTAVYYCARYWPMTPWGQGTLVTVSS VL: EIVLTQSPGTLSLSPGERATLSCRASQSVEMSYLAWYQQKPGQAPRLLMYDASIRATGIPDRFSGSGSGTDFTLTISRLEPEDFAVYYCQQYAHWPLTFGQGTKVEIK: 4.51e+06
COMBO_Rd4_0.6 nM_C21: anti-BCMA antibody (antibody, V domains shown) VH: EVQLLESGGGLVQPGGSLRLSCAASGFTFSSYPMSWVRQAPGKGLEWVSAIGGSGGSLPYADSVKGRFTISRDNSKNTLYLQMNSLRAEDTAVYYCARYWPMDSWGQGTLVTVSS VL: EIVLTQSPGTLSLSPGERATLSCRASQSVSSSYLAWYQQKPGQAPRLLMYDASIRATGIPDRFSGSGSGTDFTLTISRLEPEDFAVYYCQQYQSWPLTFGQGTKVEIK: 1.34e+07
COMBO_Rd4_0.6 nM_C23: anti-BCMA antibody (antibody, V domains shown) VH: EVQLLESGGGLVQPGGSLRLSCAASGFTFSSYPMSWVRQAPGKGLEWVSALFGSGGSTYYADSVKGRFTISRDNSKNTLYLQMNSLRAEDTAVYYCARYWPMDSWGQGTLVTVSS VL: EIVLTQSPGTLSLSPGERATLSCRPRQSVSSSYLAWYQQKPGQAPRLLMYDASIRATGIPDRFSGSGSGTDFTLTISRLEPEDFAVYYCQQYQDWPLTFGQGTKVEIK: 7.39e+06
A02_Rd4_0.6 nM_C26: anti-BCMA antibody (antibody, V domains shown) VH: EVQLLESGGGLVQPGGSLRLSCAASGFTFSSYAMNWVRQAPGKGLEWVSAILMSGGSTYYADSVKGRFTISRDNSKNTLYLQMNSLRAEDTAVYYCARYWPMSLWGQGTLVTVSS VL: EIVLTQSPGTLSLSPGERATLSCGPSQSVSSSYLAWYQQKPGQAPRLLMYDASIRATGIPDRFSGSGSGTDFTLTISRLEPEDFAVYYCQQYQSWPLTFGQGTKVEIK: 7.26e+06

Query: I have this molecule here, COMBO_Rd4_6 nM_C25: anti-BCMA antibody (antibody, V domains shown) VH: EVQLLESGGGLVQPGGSLRLSCAASGFTFSSYPMSWVRQAPGKGLEWVSAIGGSGGSTYYADSVKGRFTISRDNSKNTLYLQMNSLRAEDTAVYYCARYWPMDPWGQGTLVTVSS VL: EIVLTQSPGTLSLSPGERATLSCRASQSVSSPYLAWYQQKPGQAPRLLMYDASIRATGIPDRFSGSGSGTDFTLTISRLEPEDFAVYYCQQYQSWPLTFGQGTKVEIK , and I need its recorded ka Human.
Reply: 7.98e+06

Query: I have this molecule here, A02_Rd4_6 nM_C23: anti-BCMA antibody (antibody, V domains shown) VH: EVQLLESGGGLVQPGGSLRLSCAASGFTFSSYAMNWVRQAPGKGLEWVSAISDSGGSGWYADSVKGRFTISRDNSKNTLYLQMNSLRAEDTAVYYCARYWPMSLWGQGTLVTVSS VL: EIVLTQSPGTLSLSPGERATLSCRASQSVSVEYLAWYQQKPGQAPRLLMYDASIRATGIPDRFSGSGSGTDFTLTISRLEPEDFAVYYCQQYARWPLTFGQGTKVEIK , and I need its recorded ka Human.
Reply: 1.22e+07

Query: I have this molecule here, C01_Rd4_0.6 nM_C27: anti-BCMA antibody (antibody, V domains shown) VH: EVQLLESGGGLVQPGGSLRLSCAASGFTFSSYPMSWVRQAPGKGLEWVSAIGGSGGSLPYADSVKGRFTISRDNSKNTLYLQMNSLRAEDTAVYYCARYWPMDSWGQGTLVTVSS VL: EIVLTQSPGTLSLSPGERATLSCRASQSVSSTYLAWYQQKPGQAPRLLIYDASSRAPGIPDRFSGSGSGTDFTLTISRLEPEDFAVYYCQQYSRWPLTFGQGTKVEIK , and I need its recorded ka Human.
Reply: 1.23e+07

Query: I have this molecule here, COMBO_Rd4_0.6 nM_C05: anti-BCMA antibody (antibody, V domains shown) VH: EVQLLESGGGLVQPGGSLRLSCAASGFTFSSYAMNWVRQAPGKGLEWVSAIGGSGGSTYYADSVKGRFTISRDNSKNTLYLQMNSLRAEDTAVYYCARYWPMSLWGQGTLVTVSS VL: EIVLTQSPGTLSLSPGERATLSCRASQSVSSTYLAWYQQKPGQAPRLLMYDASIRATGIPDRFSGSGSGTDFTLTISRLEPEDFAVYYCQQYMSWPLTFGQGTKVEIK , and I need its recorded ka Human.
Reply: 4.32e+06

Query: I have this molecule here, C01_Rd4_6 nM_C20: anti-BCMA antibody (antibody, V domains shown) VH: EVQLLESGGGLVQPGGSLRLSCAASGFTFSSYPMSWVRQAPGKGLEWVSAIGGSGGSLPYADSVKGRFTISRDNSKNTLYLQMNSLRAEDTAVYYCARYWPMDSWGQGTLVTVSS VL: EIVLTQSPGTLSLSPGERATLSCRASQSVSPLYLAWYQQKPGQAPRLLIYDASSRAPGIPDRFSGSGSGTDFTLTISRLEPEDFAVYYCQQYSAFPLTFGQGTKVEIK , and I need its recorded ka Human.
Reply: 6.02e+06
